The measured values listed here are drawn from patent US7091199B1.

test_target: human D4 receptor (D4.2 sub-type) (Homo sapiens, UniProt P21917, DEL271-302)
Sequence (P21917 with tags, fused parts or gaps DEL271-302): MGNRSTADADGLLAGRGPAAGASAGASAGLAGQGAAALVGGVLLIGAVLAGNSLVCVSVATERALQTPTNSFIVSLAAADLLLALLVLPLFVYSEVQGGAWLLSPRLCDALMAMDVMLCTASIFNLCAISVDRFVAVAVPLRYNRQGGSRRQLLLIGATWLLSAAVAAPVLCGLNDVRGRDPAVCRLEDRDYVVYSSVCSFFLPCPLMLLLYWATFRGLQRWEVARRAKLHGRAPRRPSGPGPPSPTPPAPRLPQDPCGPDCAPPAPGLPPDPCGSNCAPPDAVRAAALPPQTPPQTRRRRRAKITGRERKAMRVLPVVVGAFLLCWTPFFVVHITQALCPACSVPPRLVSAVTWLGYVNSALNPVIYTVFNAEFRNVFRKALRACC
assay_explanation: D4 receptor binding assay (3H-spiperone displacement)
particulars: @ 1 μM test compound; 3H-spiperone binding; read-out: D4 RBA % Inhibition (@ 1 μM)
readout_kind: inhibition at 1 µM (%)

c1cncc(CNCCOc2cccc(-c3noc4ccsc34)c2)c1 [Compound 25] | 93

1 = FC(F)(F)c1ccc(CNCCOc2cccc(-c3noc4ccsc34)c2)cc1 [Compound 52]
2 = NS(=O)(=O)c1ccc(CNCCCOc2cccc(-c3noc4ccsc34)c2)cc1 [Compound 14]
1 or 2 : whose inhibition at 1 µM is greater? The response must carry the label of the picked entry.
1

1 = c1ccc(N2CCN(CCCOc3cccc(-c4noc5ccsc45)c3)CC2)cc1 [Compound 10]
2 = Fc1cccc(F)c1CNCCCOc1cccc(-c2noc3ccsc23)c1 [Compound 56]
1 or 2 : whose inhibition at 1 µM is greater? The response must carry the label of the picked entry.
1

P = OC(CNCCCOc1cccc(-c2noc3ccsc23)c1)c1ccccc1 (stereo not shown) [Compound 9]
Q = c1cc(OCCN2CCCC2)cc(-c2noc3ccsc23)c1 [Compound 61]
// compare measured inhibition at 1 µM between P and Q ; output the lower one The response must carry the label of the picked entry.
Q

====

test_target: human D4 receptor (D4.2 sub-type) (Homo sapiens, UniProt P21917, DEL271-302)
assay_explanation: D4 receptor binding assay (3H-spiperone displacement)
particulars: 3H-spiperone 0.25 nM, HEK cell membranes, human D4.2; read-out: D4 RBA Ki
Structures can show the parent of a compound that is named as a salt.
readout_kind: Ki (nM)

Fc1ccc(CNCCOc2cccc(-c3noc4ccsc34)c2)cc1 | 12

A = Fc1ccccc1CNCCCOc1cccc(-c2noc3ccsc23)c1
B = c1cc(OCCNCc2ccsc2)cc(-c2noc3ccsc23)c1 [Compound 33, hydrochloride]
C = Clc1ccc(CNCCOc2cccc(-c3noc4ccsc34)c2)cc1
D = Cc1ccc(CNCCOc2cccc(-c3noc4ccsc34)c2)cc1
Ascending by Ki, please. Please list the labels in the order you were asked to rank them.
D, B, C, A
(D: 5.27 nM, B: 15 nM, C: 34 nM, A: 62 nM)

====

test_target: human D4 receptor (D4.2 sub-type) (Homo sapiens, UniProt P21917, DEL271-302)
assay_explanation: D4 receptor binding assay (3H-spiperone displacement)
particulars: @ 1 μM test compound; 3H-spiperone binding; read-out: D4 RBA % Inhibition (@ 1 μM)
Description: D4 receptor-binding affinities of the compounds were evaluated according to their ability to reduce binding of ^3H-spiperone as compared to the reference compound clozapine. The potency of the test compound to reduce ^3H-spiperone binding directly correlated to its binding affinity for the receptor. […]
readout_kind: inhibition at 1 µM (%)

Use these answered entries as a reference point.
c1ccc(N2CCN(CCOc3cccc(-c4noc5ccsc45)c3)CC2)cc1 | 78
Fc1ccc(CNCCOc2cccc(-c3noc4ccsc34)c2)c(F)c1 | 95
Clc1ccccc1CNCCCOc1cccc(-c2noc3ccsc23)c1 | 89

A = c1cc(OCCCNC23CC4CC(CC(C4)C2)C3)cc(-c2noc3ccsc23)c1
B = c1cc(OCCCN2CCc3ccccc3C2)cc(-c2noc3ccsc23)c1
A or B : whose inhibition at 1 µM is greater? The response must carry the label of the picked entry.
A
